meta.source: ChEMBL document CHEMBL5614414

- run_description: Cytotoxicity against mouse L929 cells
- Assay type: toxicity, cell-based
metric_name: IC50

Problem: State the recorded IC50 for this entry: `CC(C)(C)Nc1ncc(-c2cnn(C(C)(C)CC(=O)O)c2)cc1-c1nc2ccccc2o1`
Solution: > 100 µM

----------
- run_description: Volume of distribution at steady state in male mouse at 1 mg/kg, iv
- Format: ADME, organism-based
- test_conditions: in vivo, read-out: Vdss
metric_name: Vd

Problem: May I ask what Vd has been recorded for `CC(C)(C)Nc1ncc(-c2cnn(C(C)(C)CC(=O)O)c2)cc1-c1nc2ccccc2o1` ?
Solution: 0.4 L/kg

----------
- target_or_system: hERG (Homo sapiens, UniProt Q12809)
- Sequence (Q12809 whole entry): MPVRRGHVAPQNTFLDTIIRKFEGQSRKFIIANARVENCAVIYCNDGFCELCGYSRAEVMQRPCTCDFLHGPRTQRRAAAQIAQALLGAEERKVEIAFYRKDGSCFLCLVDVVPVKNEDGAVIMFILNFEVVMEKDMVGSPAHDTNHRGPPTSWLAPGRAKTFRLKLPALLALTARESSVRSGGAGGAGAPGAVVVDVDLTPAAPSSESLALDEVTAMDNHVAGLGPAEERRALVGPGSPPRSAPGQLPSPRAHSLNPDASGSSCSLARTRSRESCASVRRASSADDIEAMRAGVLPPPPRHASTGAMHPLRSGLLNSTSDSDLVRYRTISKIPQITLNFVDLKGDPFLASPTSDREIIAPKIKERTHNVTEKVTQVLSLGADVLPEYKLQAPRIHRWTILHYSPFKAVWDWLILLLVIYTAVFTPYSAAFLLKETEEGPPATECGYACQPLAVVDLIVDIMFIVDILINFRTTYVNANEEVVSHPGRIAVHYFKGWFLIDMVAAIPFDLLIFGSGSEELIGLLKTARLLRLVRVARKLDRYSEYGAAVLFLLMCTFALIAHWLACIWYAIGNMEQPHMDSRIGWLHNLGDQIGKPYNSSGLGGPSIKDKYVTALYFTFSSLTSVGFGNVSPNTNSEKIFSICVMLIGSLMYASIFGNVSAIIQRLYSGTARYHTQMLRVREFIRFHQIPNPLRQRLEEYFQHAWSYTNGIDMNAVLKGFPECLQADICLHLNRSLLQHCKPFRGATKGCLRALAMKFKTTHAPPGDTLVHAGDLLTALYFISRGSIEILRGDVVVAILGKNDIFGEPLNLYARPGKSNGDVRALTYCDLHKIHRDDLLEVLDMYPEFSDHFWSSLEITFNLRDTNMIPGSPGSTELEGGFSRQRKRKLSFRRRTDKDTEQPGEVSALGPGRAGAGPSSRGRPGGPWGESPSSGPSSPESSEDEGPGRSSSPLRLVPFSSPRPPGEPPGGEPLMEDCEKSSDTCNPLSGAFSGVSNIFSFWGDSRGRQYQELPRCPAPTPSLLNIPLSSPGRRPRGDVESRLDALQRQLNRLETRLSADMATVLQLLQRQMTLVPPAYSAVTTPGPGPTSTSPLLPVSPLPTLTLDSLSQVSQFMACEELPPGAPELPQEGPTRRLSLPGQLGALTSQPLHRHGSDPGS
- run_description: Inhibition of hERG at 10 uM relative to control
- Assay type: toxicity
metric_name: inhibition at 10 µM

Problem: // query inhibition at 10 µM value for entry `CC(C)(C)Nc1ncc(-c2cnn(C(C)(C)CC(=O)O)c2)cc1-c1nc2ccccc2o1`
Solution: < 1%
